Data provenance is patent US20260008758A1.

# target.system: human DPP1 enzyme (Homo sapiens (Human), UniProt P53634)
# Sequence (P53634 25-134): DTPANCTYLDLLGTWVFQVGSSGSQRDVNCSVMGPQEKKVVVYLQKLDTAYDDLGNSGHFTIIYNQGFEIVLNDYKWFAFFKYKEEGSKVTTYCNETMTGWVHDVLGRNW
# Sequence (P53634 231-394): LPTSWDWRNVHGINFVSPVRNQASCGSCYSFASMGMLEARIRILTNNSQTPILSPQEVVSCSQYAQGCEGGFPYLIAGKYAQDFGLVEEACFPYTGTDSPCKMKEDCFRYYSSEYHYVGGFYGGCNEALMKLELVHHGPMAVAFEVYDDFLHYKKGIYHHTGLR
# Sequence (P53634 395-463): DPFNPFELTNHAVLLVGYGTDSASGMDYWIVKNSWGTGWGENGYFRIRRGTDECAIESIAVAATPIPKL
# protocol.description: Human DPP1 enzyme IC50 assay
# Format: biochemical
# test.settings: recombinant human DPP1, H-Gly-Arg-AMC substrate 400 μM

{"compound": "Cn1c(=O)oc2ccc(-c3ccc(C[C@@H](C#N)NC(=O)C(C)(C)CN)cc3)cc21", "IC50": "≥ 15 nM"}
{"compound": "CCN(CC)C[C@@H](O)C(=O)N[C@H](C#N)Cc1ccc(-c2ccc3oc(=O)n(C)c3c2)cc1", "IC50": "≥ 15 nM"}
{"compound": "Cn1c(=O)oc2ccc(-c3ccc(C[C@@H](C#N)NC(=O)CC(N)C(N)=O)cc3)cc21 (stereo partly shown)", "IC50": "≥ 15 nM"}
{"compound": "Cn1c(=O)oc2ccc(-c3ccc(C[C@@H](C#N)NC(=O)[C@H](N)Cc4c[nH]cn4)cc3)cc21", "IC50": "≥ 15 nM"}
{"compound": "Cn1c(=O)oc2ccc(-c3ccc(C[C@@H](C#N)NC(=O)[C@@H](N)C4CCCO4)cc3)cc21 (stereo in doubt) [Compound 210]", "IC50": "5 to 15 nM"}
{"compound": "Cn1c(=O)oc2ccc(-c3ccc(C[C@@H](C#N)NC(=O)C4(N)CCCC45CC5)cc3)cc21 (stereo partly shown)", "IC50": "≤ 5 nM"}
{"compound": "Cn1c(=O)oc2ccc(-c3ccc(C[C@@H](C#N)NC(=O)COC(=O)c4ccco4)cc3)cc21", "IC50": "≥ 15 nM"}

---

# target.system: human DPP1 enzyme (Homo sapiens (Human), UniProt P53634)
# protocol.description: Human DPP1 enzyme single-point percent inhibition testing (HL-60 lysate, H-Gly-Arg-AMC substrate)
# Format: biochemical
# test.settings: read-out: human DPP1 enzyme % inhibition @ 10 nM, 10 nM compound, 400 μM H-Gly-Arg-AMC, 10 min pre-incubation at 37° C.
# inhibition at 0.01 µM listing for each entry below
quantity.kind: inhibition at 0.01 µM

{"compound": "CN(C)C[C@](C)(O)C(=O)N[C@H](C#N)Cc1cc2c(cc1F)-c1ccc(F)cc1CO2", "endpoint.result": "≤ 40%"}
{"compound": "CO[C@@H](CN(C)C)C(=O)NC(C#N)Cc1cc2c(cc1F)-c1cc(C#N)ccc1CO2 (some centres unmarked)", "endpoint.result": "≤ 40%"}
{"compound": "CO[C@@H](CN(C)C)C(=O)N[C@H](C#N)Cc1ccc(-c2cc3c(C)nc(C)cn3c2)cc1", "endpoint.result": "≤ 40%"}
{"compound": "CO[C@@H](CN(C)C)C(=O)N[C@H](C#N)Cc1ccc(-c2ccc3cnn(C4CCN(C)CC4)c3c2)cc1F", "endpoint.result": "≥ 66.7%"}
{"compound": "CN(C)C[C@H](O)C(=O)N[C@H](C#N)Cc1ccc(-c2ccc(CN3CCN(C)CC3)cc2)cc1F", "endpoint.result": "≤ 40%"}
{"compound": "CO[C@@H](CN(C)C)C(=O)N[C@H](C#N)Cc1ccc(-c2ccc3c(c2)C2(CCCN(C)C2)C(=O)N3C)cc1 (some centres unmarked)", "endpoint.result": "≤ 40%"}
{"compound": "CN(C)CCn1c(=O)oc2ccc(-c3ccc(C[C@@H](C#N)NC(=O)[C@@](C)(O)CN(C)C)c(F)c3)cc21", "endpoint.result": "≥ 66.7%"}
{"compound": "CO[C@@H](CN(C)C)C(=O)N[C@H](C#N)Cc1ccc(-c2ccc3c(c2)C2(CCN(C4COC4)CC2)OC3)cc1F", "endpoint.result": "40 to 66.7%"}
{"compound": "CO[C@@H](CN(C)C)C(=O)NC(C#N)Cc1cc2c(cc1F)-c1ccc3oc(=O)n(C)c3c1CO2 (some centres unmarked)", "endpoint.result": "≤ 40%"}
{"compound": "CN(C)C[C@H](O)C(=O)N[C@H](C#N)Cc1ccc(-c2ccc3cnn(C)c3c2)cc1F", "endpoint.result": "≤ 40%"}
{"compound": "CN(C)C[C@](C)(O)C(=O)NC(C#N)Cc1cc2c(cc1F)-c1cc3c(cc1CO2)oc(=O)n3C (some centres unmarked)", "endpoint.result": "40 to 66.7%"}
{"compound": "CN(C)C[C@](C)(O)C(=O)N[C@H](C#N)Cc1ccc(-c2ccc3oc(=O)n(CCN4CCOCC4)c3c2)cc1F", "endpoint.result": "≥ 66.7%"}
{"compound": "CCN1C(=O)Cc2ccc(-c3ccc(C[C@@H](C#N)NC(=O)[C@@H](O)CN(C)C)c(F)c3)cc21", "endpoint.result": "40 to 66.7%"}
{"compound": "CN(C)C[C@](C)(O)C(=O)N[C@H](C#N)Cc1ccc(-c2ccc3c(c2)C2(CCCN(C)C2)C(=O)N3C)cc1 (some centres unmarked)", "endpoint.result": "≥ 66.7%"}
